- System: NIH3T3
- Experiment Description: qHTS assay to identify novel small-molecules to repurpose for Merkel cell carcinoma treatment (AID 1296009); note: nearly all actives have a fitted effect of over 60% in size
- Settings: MCC and control cell lines, CellTiter-Glo viability, 72 h; at 44.8 µM (top of the series) unless noted
Results filed as inconclusive are left out. Calls of active or inactive are those of the source. Calls come from the whole dose curve; as a rule, active = well fitted inhibition curve with a large enough effect; inconclusive = small, poorly fitted or top-dose-only effect; inactive = flat fitted curve, though single readings scatter.
Quantity: outcome

Past entries and their recorded results:
Molecule	outcome
C=C[C@@]1(C)CCC2=C([C@H]1OC(C)=O)[C@H](OC(C)=O)CC1[C@](C)(C(=O)OC)CC[C@H](OC(C)=O)[C@]21C (stereo partly drawn)	inactive [at 17.4 µM]
COc1cc(C[C@@]2(O)CO[C@@H](c3ccc(O[C@@H]4O[C@H](CO)[C@@H](O)[C@H](O)[C@H]4O)c(OC)c3)[C@H]2CO)ccc1O	inactive [at 17.4 µM]
COc1cccc(CN(C(=O)CC(C)(C)C)C2CC(C(=O)N3CCNCC3)N(Cc3ccc4c(c3)OCO4)C2)c1 (stereo not drawn)	inactive
C=C1C(OC(C)=O)CCC2(C)CCC(C(C)(C)O)CC12 (stereo not drawn)	inactive
COC(=O)c1ccc(OC)cc1O[C@@H]1O[C@H](CO[C@@H]2OC[C@@H](O)[C@H](O)[C@H]2O)[C@@H](O)[C@H](O)[C@H]1O	inactive [at 17.4 µM]
CC1(C)CC[C@]2(C(=O)O[C@@H]3O[C@H](CO[C@@H]4O[C@H](CO)[C@@H](O)[C@H](O)[C@H]4O)[C@@H](O)[C@H](O[C@@H]4O[C@H](CO)[C@@H](O)[C@H](O)[C@H]4O)[C@H]3O)CC[C@]3(C)C(=CCC4[C@@]5(C)CC[C@H](O[C@@H]6OC[C@@H](O)[C@H](O)[C@H]6O)[C@@](C)(C(=O)O)C5CC[C@]43C)[C@@H]2C1 (stereo partly drawn)	inactive [at 9.27 µM]
C=C1C(=O)O[C@@H]2CC(C)=C([C@@H](C)CCCOC(C)=O)[C@@H](O)[C@H]12	inactive
CC(=O)Nc1cccc2c1c(Sc1ccc(Cl)cc1)c(C)n2CC(=O)O	inactive
CC1(C)CC[C@]2(C(=O)O[C@@H]3O[C@H](CO)[C@@H](O)[C@H](O)[C@H]3O)CC[C@]3(C)C(=CCC4[C@@]5(C)CC[C@H](OC6OC(C(=O)O)C(OC7OC(CO)C(O)C(O)C7O)C(O)C6O)C(C)(C)C5CC[C@]43C)C2C1 (stereo partly drawn)	inactive [at 9.27 µM]
CC(C)CC[C@@H](O)[C@](C)(O)[C@H]1CC[C@@]2(O)C3=CC(=O)[C@@H]4C[C@@H](O)[C@@H](O)C[C@]4(C)[C@H]3CC[C@]12C	inactive

Reported outcome for COc1ccc(C2(O)c3ccccc3NC(=O)C2OC)cc1 (stereo not drawn) was inactive

Reported outcome for CC(=O)c1ccc(O[C@@H]2OC[C@@H](O)[C@H](O)[C@H]2O[C@]2(CO)O[C@H](CO)[C@@H](O)[C@@H]2O)c(O)c1 was inactive [at 17.4 µM]

Reported outcome for CC(=O)O[C@@H]1C(=O)C(C)=C(CCC(C)CC(=O)O)[C@@]2(C)CCCC(C)(C)C12 (stereo partly drawn) was inactive

---

- Test system: Zika virus NS2B-NS3 protease (unlinked complex)
- Experiment Description: Primary screen GU Rhodamine qHTS for Zika virus inhibitors: Unlinked NS2B-NS3 protease assay (AID 1347159); note: nearly all actives have a fitted effect of over 60% in size
- Settings: Recombinant ZIKV NS2B-NS3 protease, Rhodamine110 substrate fluorescence; series mostly up to 107 µM
Results filed as inconclusive are left out. Calls of active or inactive are those of the source. The call rests on the fitted dose curve; in most records, active means well fitted inhibition curve with a large enough effect; inconclusive means small, poorly fitted or top-dose-only effect; inactive means no such curve, though single readings can be large or run the other way.
Write down the outcome that applies. Available outcomes: active, inactive

Which outcome was entered for the compound O=C(O[C@H]1[C@H](Oc2ccc(O)cc2CO)O[C@H](CO)[C@@H](O)[C@@H]1O)c1ccccc1 in this test?
inactive

Which outcome was entered for the compound O=C(O)Cc1cn([C@@H]2O[C@H](CO)[C@@H](O)[C@H](O)[C@H]2O[C@@H]2O[C@H](CO)[C@@H](O)[C@H](O)[C@H]2O)c2ccccc12 in this test?
inactive

Which outcome was entered for the compound CC(C)/C=C1/NC(=O)C(C(C)C)n2c1nc1c(O)cccc1c2=O (stereo not drawn) in this test?
inactive

Which outcome was entered for the compound C/C=C1/[C@H](O[C@@H]2O[C@H](CO)[C@@H](O)[C@H](O)[C@H]2O)OC=C2C(=O)O[C@@H]3C[C@@H](C(C)CO)[C@H](COC(=O)C[C@H]21)[C@H]3C (stereo partly drawn) in this test?
inactive

Which outcome was entered for the compound CC1(C)OC(=O)CC(O)C2(C)C1CC(=O)C1(C)C2C(O)CC2(C)C(c3ccoc3)OC(=O)C3OC321 (stereo not drawn) in this test?
inactive

Which outcome was entered for the compound C=CC1(C)C=C2CC[C@H]3[C@@](C)(C(=O)O)CCC[C@]3(C)C2CC1 (stereo partly drawn) in this test?
active

Which outcome was entered for the compound COc1cc2c(cc1O)CC(O)(CO)C(CO)C2c1ccc(OC2OC(CO)C(O)C(O)C2O)c(OC)c1 (stereo not drawn) in this test?
inactive

Which outcome was entered for the compound COc1cc(O)c2c(c1Cl)CC(C)OC2=O (stereo not drawn) in this test?
inactive

Which outcome was entered for the compound CCc1nn(CCO)c(CC)c1Oc1cc(C#N)cc(C#N)c1 in this test?
inactive

Which outcome was entered for the compound COC(=O)C[C@@H]1C(C(=O)O)=CO[C@@H](O[C@@H]2O[C@H](CO)[C@@H](O)[C@H](O)[C@H]2O)/C1=C\COC(=O)/C=C/c1ccc(O)c(OC)c1 in this test?
inactive

Which outcome was entered for the compound CC1(C)CC2C(O)C3=C(CC(C)(O)C2C1)C(=O)OC3 (stereo not drawn) in this test?
inactive

Which outcome was entered for the compound O=C(NC1CCN(CC(F)(F)F)CC1)c1ccc(-c2cccc(F)c2)nc1 in this test?
inactive

Which outcome was entered for the compound C[C@]1(OC(=O)/C=C/c2ccc(O)cc2)C[C@@H](O)[C@]2(O)C=CO[C@@H](O[C@@H]3O[C@H](CO)[C@@H](O)[C@H](O)[C@H]3O)C12 (stereo partly drawn) in this test?
inactive

Which outcome was entered for the compound CC1(C)CC[C@]2(C(=O)O)CC[C@]3(C)C(=CCC4[C@@]5(C)C[C@@H](O)[C@H](O)[C@](C)(CO)C5CC[C@]43C)[C@@H]2[C@@H]1O (stereo partly drawn) in this test?
inactive

Which outcome was entered for the compound C=C1C(OC(C)=O)[C@@]23CCC4[C@](C)(C(=O)O)CCC[C@@]4(C)[C@]2(O)CC[C@H]1C3 (stereo partly drawn) in this test?
inactive

Which outcome was entered for the compound CNC(=O)c1ccc2c(c1)CCO[C@H]2CCN1CCN(c2ccc(C(N)=O)cc2)CC1 in this test?
inactive

Which outcome was entered for the compound Cc1ccc(Cl)cc1N(CC(=O)Nc1c(F)cccc1F)S(C)(=O)=O in this test?
inactive

Which outcome was entered for the compound C=C1[C@@H]2CC[C@@]3(C)[C@H](c4ccoc4)OC(=O)C[C@]13O[C@H]1CC(=O)C(C)(C)[C@H](C(O)C(=O)OC)[C@]12C (stereo partly drawn) in this test?
inactive

Which outcome was entered for the compound NC(=O)[C@@H]1CC[C@H](c2ccc(OCc3ccccc3F)cc2)N1 in this test?
inactive

Which outcome was entered for the compound C=C[C@]1(C)C[C@@H](OC(=O)CSC2C[C@H]3CC[C@@H](C2)N3C)[C@]2(C)[C@H](C)CC[C@]3(CCC(=O)[C@H]32)[C@@H](C)[C@@H]1O (stereo partly drawn) in this test?
inactive

Which outcome was entered for the compound COC(=O)C(Cc1ccccc1)NC(=O)c1ccccc1 (stereo not drawn) in this test?
inactive

Which outcome was entered for the compound CCc1nnc(NS(=O)(=O)c2ccc(NC(=S)NC(=O)/C=C/c3ccc(F)cc3)cc2)s1 in this test?
active

Which outcome was entered for the compound COC(=O)C1=COC(O[C@@H]2O[C@H](CO)[C@@H](O)[C@H](O)[C@H]2O)/C(=C\COC(=O)/C=C/c2ccccc2)C1CC(=O)OCCc1ccc(O)cc1 (stereo partly drawn) in this test?
inactive

Which outcome was entered for the compound COC(O)(CC(C)C)C1Oc2cc(C)[nH]c(=O)c2O1 (stereo not drawn) in this test?
inactive

Which outcome was entered for the compound COC(=O)c1ccc(OC)cc1O[C@@H]1O[C@H](CO[C@@H]2OC[C@@H](O)[C@H](O)[C@H]2O)[C@@H](O)[C@H](O)[C@H]1O in this test?
inactive

Which outcome was entered for the compound CC1(C)C2CC[C@@]34CC(CC[C@H]3[C@]2(C)CC[C@@H]1O[C@@H]1O[C@H](CO)[C@@H](O)[C@H](O)[C@H]1O)[C@](C)(O)C4 (stereo partly drawn) in this test?
inactive

Which outcome was entered for the compound Cc1occc1C(=O)n1ccnc1 in this test?
inactive

Which outcome was entered for the compound CC(=O)O[C@@H]1CC2C(C)(C)C(=O)C=C[C@]2(C)C2CC[C@]3(C)C(=CC(=O)[C@@H]3c3ccoc3)[C@@]21C (stereo partly drawn) in this test?
inactive

Which outcome was entered for the compound CC(=O)O[C@@H]1C[C@@H](C)[C@](O)(CCC2=CC(=O)OC2)[C@@]2(C)CCCC(C)(C)C12 (stereo partly drawn) in this test?
inactive

Which outcome was entered for the compound O=[N+]([O-])c1cc(Cl)ccc1S(=O)(=O)N1CCN(Cc2ccccc2)CC1 in this test?
inactive

Which outcome was entered for the compound Cc1[nH]c2ccccc2c1CC(=O)N[C@@H](Cc1ccccc1)C(=O)N(C)c1ccccc1 in this test?
inactive

Which outcome was entered for the compound O=C(Nc1ccc(N2CCC(C(=O)N3CCOCC3)CC2)cc1)c1cnc(Oc2ccccc2)nc1 in this test?
inactive

Which outcome was entered for the compound Oc1ccc2c(-c3c(-c4ccccn4)nn4c3CCC4)ccnc2c1 in this test?
inactive
